- assayText: Stability of a compound in human serum assessed as half life at 91 mg/mL incubated for 0 to 144 hrs by HPLC-UV analysis
- Type: ADME, cell-free
- conditionSet: time 0-144 hrs
parameterMeasured: half-life at 91 mg/mL (h)

# substance, measuredResult
measured = [
    ("Ac-GLFAVIKKVASVIKGL-NH2", 6.81),
]

====

- Test system: MCF7
- assayText: Anti-cancer activity against human MCF7 assessed as cell viability incubated for 48 hrs by CCK-8 assay
- Type: functional, cell-based
- conditionSet: MCF7, 48 h
parameterMeasured: IC50 (µM)

# substance, measuredResult
measured = [
    ("Ac-GLFAVIKKVASVIKGL-NH2", 14),
]

====

- Test system: HCT-116
- assayText: Anti-cancer activity against human HCT-116 assessed as cell viability incubated for 48 hrs by CCK-8 assay
- Assay type: functional, cell-based
- conditionSet: HCT-116, 48 h
*1 amine or outer side, *2 acyl side, *3 side chain or, on linkers, in order; H or OH if unused. Where a SMILES comes first, the peptide text is derived from it. Bridges are numbered along the chain shown (N, C = ends). mXylylene = c1cc(C[*:1])cc(C[*:2])c1; oXylylene = c1ccc(C[*:2])c(C[*:1])c1; pXylylene = c1cc(C[*:2])ccc1C[*:1]

# compound, IC50 [µM]
data = [
    ("CC[C@H](C)[C@H](NC(=O)[C@@H](NC(=O)[C@H](CO)NC(=O)[C@H](C)NC(=O)[C@@H](NC(=O)[C@H](CCCCN)NC(=O)[C@H](CCCCN)NC(=O)[C@@H]1CSCc2cccc(c2)CSC[C@H](NC(=O)CNC(C)=O)C(=O)N[C@@H](Cc2ccccc2)C(=O)N[C@@H](C)C(=O)N[C@@H](C(C)C)C(=O)N1)C(C)C)C(C)C)C(=O)N[C@@H](CCCCN)C(=O)NCC(=O)N[C@@H](CC(C)C)C(N)=O (Ac-GCFAVCKKVASVIKGL-NH2; linker 2-6 via mXylylene)", 106),
    ("CC[C@H](C)[C@@H]1NC(=O)[C@@H](NC(=O)[C@H](C)NC(=O)[C@H](Cc2ccccc2)NC(=O)[C@H](CC(C)C)NC(=O)CNC(C)=O)CSCc2cccc(c2)CSC[C@@H](C(=O)N[C@@H](C)C(=O)N[C@@H](CO)C(=O)N[C@H](C(=O)N[C@H](C(=O)N[C@@H](CCCCN)C(=O)NCC(=O)N[C@@H](CC(C)C)C(N)=O)[C@@H](C)CC)C(C)C)NC(=O)[C@H](CCCCN)NC(=O)[C@H](CCCCN)NC1=O (Ac-GLFACIKKCASVIKGL-NH2; linker 5-9 via mXylylene)", 8.23),
    ("CC[C@H](C)[C@H](NC(=O)[C@@H](NC(=O)[C@H](C)NC(=O)[C@H](Cc1ccccc1)NC(=O)[C@H](CC(C)C)NC(=O)CNC(C)=O)C(C)C)C(=O)N[C@@H](CCCCN)C(=O)N[C@@H](CCCCN)C(=O)N[C@H]1CSCc2ccccc2CSC[C@@H](C(=O)N[C@@H](CCCCN)C(=O)NCC(=O)N[C@@H](CC(C)C)C(N)=O)NC(=O)[C@H](C(C)C)NC(=O)[C@H](CO)NC(=O)[C@H](C)NC1=O (Ac-GLFAVIKKCASVCKGL-NH2; linker 9-13 via oXylylene)", 7.94),
    ("CC[C@H](C)[C@@H]1NC(=O)[C@@H](NC(=O)[C@H](C)NC(=O)[C@H](Cc2ccccc2)NC(=O)[C@H](CC(C)C)NC(=O)CNC(C)=O)CSCc2ccccc2CSC[C@@H](C(=O)N[C@@H](C)C(=O)N[C@@H](CO)C(=O)N[C@H](C(=O)N[C@H](C(=O)N[C@@H](CCCCN)C(=O)NCC(=O)N[C@@H](CC(C)C)C(N)=O)[C@@H](C)CC)C(C)C)NC(=O)[C@H](CCCCN)NC(=O)[C@H](CCCCN)NC1=O (Ac-GLFACIKKCASVIKGL-NH2; linker 5-9 via oXylylene)", 5.04),
    ("CC[C@H](C)[C@H](NC(=O)[C@@H](NC(=O)[C@H](CO)NC(=O)[C@@H]1CSCc2cccc(c2)CSC[C@H](NC(=O)[C@@H](NC(=O)[C@H](C)NC(=O)[C@H](Cc2ccccc2)NC(=O)[C@H](CC(C)C)NC(=O)CNC(C)=O)C(C)C)C(=O)N[C@@H](CCCCN)C(=O)N[C@@H](CCCCN)C(=O)N[C@@H](C(C)C)C(=O)N1)C(C)C)C(=O)N[C@@H](CCCCN)C(=O)NCC(=O)N[C@@H](CC(C)C)C(N)=O (Ac-GLFAVCKKVCSVIKGL-NH2; linker 6-10 via mXylylene)", 10.6),
    ("CC[C@H](C)[C@H](NC(=O)[C@@H](NC(=O)[C@H](C)NC(=O)[C@H](Cc1ccccc1)NC(=O)[C@H](CC(C)C)NC(=O)CNC(C)=O)C(C)C)C(=O)N[C@@H](CCCCN)C(=O)N[C@@H](CCCCN)C(=O)N[C@H]1CSCc2cccc(c2)CSC[C@@H](C(=O)N[C@@H](CCCCN)C(=O)NCC(=O)N[C@@H](CC(C)C)C(N)=O)NC(=O)[C@H](C(C)C)NC(=O)[C@H](CO)NC(=O)[C@H](C)NC1=O (Ac-GLFAVIKKCASVCKGL-NH2; linker 9-13 via mXylylene)", 11),
    ("CC[C@H](C)[C@H](NC(=O)[C@@H](NC(=O)[C@H](CO)NC(=O)[C@H](C)NC(=O)[C@@H](NC(=O)[C@H](CCCCN)NC(=O)[C@H](CCCCN)NC(=O)[C@@H]1CSCc2ccccc2CSC[C@H](NC(=O)CNC(C)=O)C(=O)N[C@@H](Cc2ccccc2)C(=O)N[C@@H](C)C(=O)N[C@@H](C(C)C)C(=O)N1)C(C)C)C(C)C)C(=O)N[C@@H](CCCCN)C(=O)NCC(=O)N[C@@H](CC(C)C)C(N)=O (Ac-GCFAVCKKVASVIKGL-NH2; linker 2-6 via oXylylene)", 13.9),
    ("CC[C@H](C)[C@@H]1NC(=O)[C@@H](NC(=O)[C@H](C)NC(=O)[C@H](Cc2ccccc2)NC(=O)[C@H](CC(C)C)NC(=O)CNC(C)=O)CSCc2ccc(cc2)CSC[C@@H](C(=O)N[C@@H](C)C(=O)N[C@@H](CO)C(=O)N[C@H](C(=O)N[C@H](C(=O)N[C@@H](CCCCN)C(=O)NCC(=O)N[C@@H](CC(C)C)C(N)=O)[C@@H](C)CC)C(C)C)NC(=O)[C@H](CCCCN)NC(=O)[C@H](CCCCN)NC1=O (Ac-GLFACIKKCASVIKGL-NH2; linker 5-9 via pXylylene)", 12.9),
    ("CC[C@H](C)[C@H](NC(=O)[C@@H](NC(=O)[C@H](C)NC(=O)[C@H](Cc1ccccc1)NC(=O)[C@H](CC(C)C)NC(=O)CNC(C)=O)C(C)C)C(=O)N[C@@H](CCCCN)C(=O)N[C@@H](CCCCN)C(=O)N[C@H]1CSCc2ccc(cc2)CSC[C@@H](C(=O)N[C@@H](CCCCN)C(=O)NCC(=O)N[C@@H](CC(C)C)C(N)=O)NC(=O)[C@H](C(C)C)NC(=O)[C@H](CO)NC(=O)[C@H](C)NC1=O (Ac-GLFAVIKKCASVCKGL-NH2; linker 9-13 via pXylylene)", 114),
    ("CC[C@H](C)[C@H](NC(=O)[C@@H](NC(=O)[C@H](CO)NC(=O)[C@H](C)NC(=O)[C@@H](NC(=O)[C@H](CCCCN)NC(=O)[C@H](CCCCN)NC(=O)[C@@H]1CSCc2ccc(cc2)CSC[C@H](NC(=O)CNC(C)=O)C(=O)N[C@@H](Cc2ccccc2)C(=O)N[C@@H](C)C(=O)N[C@@H](C(C)C)C(=O)N1)C(C)C)C(C)C)C(=O)N[C@@H](CCCCN)C(=O)NCC(=O)N[C@@H](CC(C)C)C(N)=O (Ac-GCFAVCKKVASVIKGL-NH2; linker 2-6 via pXylylene)", 230),
]

Cited source for all entries: ChEMBL document CHEMBL5390219
